B1: TPR t1 (parent)
chain: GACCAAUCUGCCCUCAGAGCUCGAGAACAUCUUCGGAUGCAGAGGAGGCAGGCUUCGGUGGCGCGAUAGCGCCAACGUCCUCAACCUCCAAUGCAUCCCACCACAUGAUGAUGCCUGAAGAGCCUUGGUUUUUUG

Variants of: B1
Experiment: polymerase ribozyme fitness, log enrichment relative to wild type (log ratio); higher = more active; in vitro selection for triplet polymerase activity
This section presents variants with their documented polymerase ribozyme fitness (log ratio) values.

>>> value("C13U A27U C49A U130C U132C")
-2.53
>>> value("C12A A46U")
-1.75
>>> value("C56U C94A A105G")
-3.08
>>> value("C11U C20A G42C C102U U112C C124G")
-5.12

IN: Return reported polymerase ribozyme fitness (log ratio); argument: U21A G39U G48A A74U U78G
OUT: -2.09

IN: Return reported polymerase ribozyme fitness (log ratio); argument: A5C C8G C40U U112G U133G
OUT: -0.864

IN: Return reported polymerase ribozyme fitness (log ratio); argument: G61A U78G G120A
OUT: 0.458

IN: Return reported polymerase ribozyme fitness (log ratio); argument: G61A C97U C114U
OUT: -2.43

IN: Return reported polymerase ribozyme fitness (log ratio); argument: C12G A27G
OUT: -1.67

IN: Return reported polymerase ribozyme fitness (log ratio); argument: C73A G113A U131A
OUT: -1.4

IN: Return reported polymerase ribozyme fitness (log ratio); argument: G60C U96C C104U G117A
OUT: -2.83

IN: Return reported polymerase ribozyme fitness (log ratio); argument: C12A C53U C56G G135A
OUT: -2.18

IN: Return reported polymerase ribozyme fitness (log ratio); argument: C56U C104A
OUT: -1.58

IN: Return reported polymerase ribozyme fitness (log ratio); argument: G10U C49U G57A U106C
OUT: -2.46

IN: Return reported polymerase ribozyme fitness (log ratio); argument: A43G G61A G65U
OUT: -5.48

IN: Return reported polymerase ribozyme fitness (log ratio); argument: G120U G128C
OUT: -1.03

IN: Return reported polymerase ribozyme fitness (log ratio); argument: G52A G69U G71U C102A
OUT: -4.53

IN: Return reported polymerase ribozyme fitness (log ratio); argument: C8U A18C A41U A50G C72G C101U
OUT: -3.51

IN: Return reported polymerase ribozyme fitness (log ratio); argument: G42U G57U C85A
OUT: -2.51

IN: Return reported polymerase ribozyme fitness (log ratio); argument: C56U C99A
OUT: -6.27

IN: Return reported polymerase ribozyme fitness (log ratio); argument: U96G G113U
OUT: -3.21

IN: Return reported polymerase ribozyme fitness (log ratio); argument: G63A A84U C86A U125G
OUT: -2.61

From: the RNAGym collection of RNA variant scans (doi:10.1073/pnas.2313332121)
